- Experimental target: T1, human IL-8 (human, UniProt P10145 23-99, limits assumed)
- T1 construct: also called hIL-8; hIL8
- T1 sequence (P10145 23-99 limits assumed): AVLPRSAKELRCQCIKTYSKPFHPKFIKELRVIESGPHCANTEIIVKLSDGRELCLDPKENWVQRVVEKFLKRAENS
- Assay procedure: SPR Biacore T200, Protein A/G capture, pH 5.8, 37C;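 note: antibodies captured by Protein A/G amine-coupled onto a CM4 sensor chip, with kinetic parameters derived using Biacore T200 Evaluation Software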
Parameter measured: Kd
Numeric answer plus unit only.

{"Binder": "H1029/L0442 (antibody, human IgG1, kappa, name in Kabat numbering, V domains shown, L442 = L395 + S31E) VH: QVQLVESGGGLVQPGGSLRLSCAASGFTFDKYYLSWVRQAPGKGLEWVGLIRNKDNHHTPEYSASVKGRFTISRDDSKNSLYLTMSDLKTEDTAVYYCARENHRYDVELAYWGQGTLVTVSS VL: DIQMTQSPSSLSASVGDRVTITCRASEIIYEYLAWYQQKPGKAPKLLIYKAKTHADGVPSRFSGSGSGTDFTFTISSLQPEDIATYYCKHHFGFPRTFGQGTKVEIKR", "Kd": "48 nM"}

Query: Fill in: Kd of H1032/L0395 (antibody, human IgG1, kappa, name in Kabat numbering, V domains shown) VH: QVQLVESGGGLVQPGGSLRLSCAASGFTFDKYYLSWVRQAPGKGLEWVGLIRNKDNGYHPEYSASVKGRFTISRDDSKNSLYLTMSDLKTEDTAVYYCARENHRYDVELAYWGQGTLVTVSS VL: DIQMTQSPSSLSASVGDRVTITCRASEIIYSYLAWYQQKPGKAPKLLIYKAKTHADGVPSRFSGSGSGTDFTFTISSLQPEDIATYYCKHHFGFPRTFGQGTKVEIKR is ___
Result: 50 nM

Query: Try this binder too: H1031/L0442 (antibody, human IgG1, kappa, name in Kabat numbering, V domains shown, L442 = L395 + S31E) VH: QVQLVESGGGLVQPGGSLRLSCAASGFTFDKYYLSWVRQAPGKGLEWVGLIRNKDNHHHPEYSASVKGRFTISRDDSKNSLYLTMSDLKTEDTAVYYCARENHRYDVELAYWGQGTLVTVSS VL: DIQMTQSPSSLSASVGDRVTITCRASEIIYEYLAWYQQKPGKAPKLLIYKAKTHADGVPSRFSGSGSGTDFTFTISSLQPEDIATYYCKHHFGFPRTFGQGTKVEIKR
Result: 89 nM
